Documented pIC50 across a set of compounds
SYSTEM: Aurora B (Homo sapiens)
Construct: HT-29 cells grown in complete growth media
Sequence (Q96GD4 whole entry): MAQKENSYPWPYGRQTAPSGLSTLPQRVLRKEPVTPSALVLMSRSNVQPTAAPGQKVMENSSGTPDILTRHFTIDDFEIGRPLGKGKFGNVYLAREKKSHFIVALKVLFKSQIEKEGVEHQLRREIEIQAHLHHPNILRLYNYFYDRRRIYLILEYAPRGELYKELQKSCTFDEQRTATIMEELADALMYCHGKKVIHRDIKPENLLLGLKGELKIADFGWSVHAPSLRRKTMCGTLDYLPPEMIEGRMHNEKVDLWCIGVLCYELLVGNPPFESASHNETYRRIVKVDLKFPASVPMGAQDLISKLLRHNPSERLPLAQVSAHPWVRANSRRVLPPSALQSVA
TEST_METHOD_NOTES: Aurora B cell mechanistic assay (HT-29), phospho-Histone H3 (Ser10) ELISA
Type: cell-based
APPLIED_CONDITIONS: HT-29 cell line; inhibition of phospho-Histone H3 (Ser10); at least duplicate experiments (italicized if single experiment); read-out: Aurora B mech IC50
pIC50: −log10 of the molar value.

INSERT INTO measurements (structure_as_smiles, system, quantity_measured, result) VALUES
  ('C[C@H](c1c(OC(F)F)ccc(F)c1Cl)c1c[nH]c2ncc(-c3cnn([C@H]4CC[C@H](O)CC4)c3F)cc12', 'Aurora B (Homo sapiens)', 'pIC50', '6.00 to 6.70'),
  ('COc1ccc(F)c(Cl)c1[C@@H](C)c1c[nH]c2ncc(-c3c(C)nn(C)c3C)cc12', 'Aurora B (Homo sapiens)', 'pIC50', '< 6.00'),
  ('COc1ccc(F)c(Cl)c1[C@@H](C)c1c[nH]c2ncc(-c3cnn(C[C@@H](O)CO)c3C(F)(F)F)cc12', 'Aurora B (Homo sapiens)', 'pIC50', '< 6.00');

## Input So what does the record say about pIC50 for Cc1c(-c2cnc3[nH]cc([C@H](C)c4c(OCC(F)(F)F)ccc(F)c4Cl)c3c2)cnn1[C@H]1CC[C@H](O)CC1 ?
## Output 6.70 to 7.30

## Input So what does the record say about pIC50 for Cc1nn(C[C@H](O)CO)cc1-c1cnc2[nH]cc([C@H](C)c3c(OC(F)F)ccc(F)c3Cl)c2c1 ?
## Output 6.70 to 7.30

## Input So what does the record say about pIC50 for COc1ccc(F)c(Cl)c1[C@@H](C)c1c[nH]c2ncc(-c3cn([C@H]4CC[C@H](O)CC4)nc3C)cc12 ?
## Output 6.70 to 7.30

* * *

Tested on: MKN45 cells
TEST_METHOD_NOTES: MKN45 cell proliferation assay (CellTiter-Glo)
Assay type: cell-based
APPLIED_CONDITIONS: Homo sapiens, MKN-45, 72 h; MKN45 cell line; 3 days incubation; at least duplicate experiments; read-out: Prolif. IC50
pIC50: −log10 of the molar value.
Documented pIC50 across a set of compounds

Example cases with answers are listed next.
INSERT INTO measurements (compound, result) VALUES
  ('N#CC(c1c(Cl)ccc(F)c1Cl)c1c[nH]c2ncc(-c3cnn([C@H]4CC[C@H](O)CC4)c3F)cc12 (stereo partly shown) [Example 109]', '6.70 to 7.30'),
  ('COc1ccc(F)c(Cl)c1[C@@H](C)c1c[nH]c2ncc(-c3cnn(C)c3CO)cc12 [Example 44]', '6.70 to 7.30'),
  ('COc1ccc(F)c(Cl)c1[C@@H](C)c1c[nH]c2ncc(-c3cn(C)nc3C(N)=O)cc12 [Example 39]', '6.70 to 7.30'),
  ('COc1ccc(F)c(Cl)c1[C@@H](C)c1c[nH]c2ncc(-c3cn([C@H]4CC[C@H](C(=O)N(C)C)CC4)nc3C)cc12 [Example 23]', '≥ 7.30'),
  ('COc1nn([C@H]2CC[C@H](O)CC2)cc1-c1cnc2[nH]cc([C@H](C)c3c(OC(F)F)ccc(F)c3Cl)c2c1 [Example 100]', '≥ 7.30');

## Input So what does the record say about pIC50 for COc1c(F)ccc(Cl)c1C(C)c1c[nH]c2ncc(-c3cnn([C@H]4CC[C@H](O)CC4)c3C)cc12 (stereo partly shown) [Example 112] ?
## Output < 6.00

## Input So what does the record say about pIC50 for CNC(=O)[C@H]1CC[C@H](n2cc(-c3cnc4[nH]cc([C@H](C)c5c(OC)ccc(F)c5Cl)c4c3)c(C)n2)CC1 [Example 22] ?
## Output ≥ 7.30
